B1: glmS ribozyme (parent)
chain: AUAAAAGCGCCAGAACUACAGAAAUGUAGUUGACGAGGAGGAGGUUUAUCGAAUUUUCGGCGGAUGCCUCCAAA

Variants of: B1
Test: self-cleavage kobs at 10000 uM GlcN6P; higher = faster cleavage; RNA array
Conditions: with glucosamine-6-phosphate
Fewer inactive variants are shown than the library holds.
I'd appreciate it if you could supply self-cleavage kobs at 10000 uM GlcN6P values for the items below.
Value expressed in s⁻¹; do not type the unit.

Query :: Answer with the recorded self-cleavage kobs at 10000 uM GlcN6P for the variant listed here: A15G G29C U31C A39U
Result :: 9.79e-05

Query :: Please look at this variant and report its self-cleavage kobs at 10000 uM GlcN6P: A14U C50G C58G
Result :: 0.000108

Query :: Give the measured self-cleavage kobs at 10000 uM GlcN6P for A6G A39U
Result :: 0.000239

Query :: Name the recorded self-cleavage kobs at 10000 uM GlcN6P of the variant listed here: A14G G40A G41U G66A
Result :: 0.000645

Query :: Using the record for A64U G66A , state its measured self-cleavage kobs at 10000 uM GlcN6P.
Result :: 8.32e-05

Query :: # return recorded self-cleavage kobs at 10000 uM GlcN6P for entry U46G U49G
Result :: 7.66e-05

Query :: Consider the variant G44A C58A C67U . State its measured self-cleavage kobs at 10000 uM GlcN6P.
Result :: 0.000308

Query :: Find the measured self-cleavage kobs at 10000 uM GlcN6P of G44C U55G and report it.
Result :: 4.43e-05

Query :: Give the measured self-cleavage kobs at 10000 uM GlcN6P for A14C G26A
Result :: 0.00166

Query :: Output measured self-cleavage kobs at 10000 uM GlcN6P for this item: G35C U45C C67G C68A
Result :: 0.000566

Query :: Give me measured self-cleavage kobs at 10000 uM GlcN6P, please, for this variant: A48U U65G
Result :: 9.9e-05

Query :: // Input: U47A C67A . Output its self-cleavage kobs at 10000 uM GlcN6P only.
Result :: 0.00568

Query :: Fill in reported self-cleavage kobs at 10000 uM GlcN6P for this entry: A53U G66U
Result :: 0.000904

Query :: Please give the documented self-cleavage kobs at 10000 uM GlcN6P of U47A C67U C71U
Result :: 0.000453

Query :: Please indicate self-cleavage kobs at 10000 uM GlcN6P recorded for C16U G32U U46G
Result :: 0.000138

Query :: Consider the variant C11U C16U C71U . State its measured self-cleavage kobs at 10000 uM GlcN6P.
Result :: 0.000614

Query :: Tell me measured self-cleavage kobs at 10000 uM GlcN6P for G59A C70U please.
Result :: 0.000133

Query :: Tell us which self-cleavage kobs at 10000 uM GlcN6P value is on record for A39G U65G C70U
Result :: 0.0203

Query :: Fill in self-cleavage kobs at 10000 uM GlcN6P for record U56G G66C
Result :: 0.000325

Query :: Give self-cleavage kobs at 10000 uM GlcN6P for G40A U45C U65G C67G
Result :: 0.00034

Query :: Tell me self-cleavage kobs at 10000 uM GlcN6P reported for C11U G59U
Result :: 0.00023
